Test system: Bacillus subtilis
Test method notes: Antibacterial activity against Bacillus subtilis […] after 24 to 48 hrs by agar dilution method
Format: functional
Observed property: MIC

# annotated cases, reported MIC shown
compound=C=C[C@]1(C)C[C@@H](OC(=O)CSc2nc(O)cc(NC(=O)[C@@H](N)C(C)C)n2)[C@]2(C)[C@H](C)CC[C@]3(CCC(=O)[C@H]32)[C@@H](C)[C@@H]1O observed_property=MIC value_observed="16 µg/mL"
compound=C=C[C@]1(C)C[C@@H](OC(=O)CSc2nc(N)cc(=O)n2C)[C@]2(C)[C@H](C)CC[C@]3(CCC(=O)[C@H]32)[C@@H](C)[C@@H]1O observed_property=MIC value_observed="16 µg/mL"

Kindly review the next compound as well.
State its MIC: C=C[C@]1(C)C[C@@H](OC(=O)CSCCN(CC)CC)[C@]2(C)[C@H](C)CC[C@]3(CCC(=O)[C@H]32)[C@@H](C)[C@@H]1O.O=C(O)/C=C/C(=O)O [TIAMULIN FUMARATE] 32 µg/mL
